# tgt: T1, Human CD3εδ Fc heterodimer (Hu CD3ε Fc + CD3δ Fc-HIS) (human, UniProt P07766 22-126; P04234 22-100)
# T1 construct: range 22-126;range 22-100; Made in HEK 293 cells with a heterologous signal peptide; also called Hu CD3εδ-Fc; CD3εδ Fc-HIS heterodimer; not shown: Fc; Fc followed by HIS tag
# test.name: BLI (Octet), Fab monovalent, pH 7.4
pKd: −log10 of the molar value.

{"binder": "Antibody No. A004 (ADI-26920) Fab (Fab, V domains shown, Fab by papain digestion of the IgG1) VH: QVQLVQSGAEVKKPGASVKVSCKASGFNIKDYYMHWVRQAPGQRLEWMGWIDLENANTIYDAKFQGRVTITRDTSASTAYMELSSLRSEDTAVYYCGRDAYGRYFYDVWGQGTLVTVSS VL: DIVMTQSPDSLAVSLGERATINCKSSQSLLNARTGKNYLAWYQQKPGQPPKLLIYWASTRESGVPDRFSGSGSGTDFTLTISSLQAEDVAVYYCKQSYSLRTFGGGTKVEIK", "pKd": 7.38}
{"binder": "Antibody No. V016 (ADI-76359) Fab (Fab, V domains shown, Fab by papain digestion of the IgG1) VH: QVQLVQSGAEVKKPGASVKVSCKASGFDIKDYYMHWVRQAPGQRLEWMGWIDLENANTIYDAKFQGRVTITRDTSASTAYMELSSLRSEDTAVYYCGRDAYGRYFYDVWGQGTLVTVSS VL: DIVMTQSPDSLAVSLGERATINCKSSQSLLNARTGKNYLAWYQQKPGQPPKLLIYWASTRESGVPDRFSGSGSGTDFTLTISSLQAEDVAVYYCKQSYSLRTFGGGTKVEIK", "pKd": 7.11}
{"binder": "Antibody No. V017 (ADI-76360) Fab (Fab, V domains shown, Fab by papain digestion of the IgG1) VH: QVQLVQSGAEVKKPGASVKVSCKASGFNIKDYYMHWVRQAPGQRLEWMGWIDLENADTIYDAKFQGRVTITRDTSASTAYMELSSLRSEDTAVYYCGRDAYGRYFYDVWGQGTLVTVSS VL: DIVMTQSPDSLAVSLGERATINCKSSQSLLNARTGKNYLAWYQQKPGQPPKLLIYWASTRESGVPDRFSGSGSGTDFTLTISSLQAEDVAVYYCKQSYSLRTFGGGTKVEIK", "pKd": 6.38}
{"binder": "Antibody No. V007 (ADI-67450) Fab (Fab, V domains shown, Fab by papain digestion of the IgG1) VH: QVQLVQSGAEVKKPGASVKVSCKASGFNIDDYYMHWVRQAPGQRLEWMGWIDLENANTIDDAKFQGRVTITRDTSASTAYMELSSLRSEDTAVYYCARDAYGRYFYDVWGQGTLVTVSS VL: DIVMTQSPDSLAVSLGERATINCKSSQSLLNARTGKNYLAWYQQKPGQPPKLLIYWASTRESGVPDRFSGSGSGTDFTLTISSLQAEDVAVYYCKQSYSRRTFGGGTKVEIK", "pKd": 8.13}

Data provenance is patent US20240317858A1.
